Catalogue of λem: Maximum emission wavelength readings, one per entry.
# run description: Measurement of absorbance and fluorescence of synthesized compound in ethanol
# Type: physicochemical
# protocol conditions: 10 μM in ethanol, average of three measurements
Give the value; after it, write the unit.

COc1ccc2nc(/C=C/C=C/c3ccc(N(C)C)nc3)ccc2c1 [Compound 15d]: 520 nm
COc1ccc2nc(/C=C/C(=O)c3ccc(Br)cc3)ccc2c1 [Compound 13e]: 415 nm
COc1ccc2nc(/C=C/c3ccc(C(F)(F)F)cc3)ccc2c1 [Compound 14a]: 415 nm

Notebook: COc1ccc2nc(/C=C/C(=O)c3ccc(C)cc3)ccc2c1 [Compound 13d] , λem: Maximum emission wavelength read as 454 nm

Sample COc1ccc2nc(/C=C/C=C/c3ccc([N+](=O)[O-])nc3)ccc2c1 [Compound 15e] ; λem: Maximum emission wavelength observed: 587 nm

Recorded result, COc1ccc2nc(C(=O)/C=C/C=C/c3ccc(N(C)C)cc3)ccc2c1 [Compound 16c] , λem: Maximum emission wavelength: 678 nm

Summary for this compound, COc1ccc2nc(/C=C/C=C/c3cccc(Cl)c3)ccc2c1 [Compound 15f] : λem: Maximum emission wavelength is 415 nm

The value of λem: Maximum emission wavelength measured for the compound CNc1ccc(/C=C/C=C/C(=O)c2ccc3cc(OC)ccc3n2)cc1 [Compound 16b] turned out to be 714 nm

Noted for COc1ccc2nc(/C=C/C=C/c3ccc(F)cc3F)ccc2c1 [Compound 15h] : its λem: Maximum emission wavelength reads 415 nm

Sourced from patent US12050224B2
